- targetEntity: recombinant SARS-CoV-2 main protease Mpro (Severe acute respiratory syndrome coronavirus 2, UniProt P0DTC1)
- experiment: FRET-based Mpro proteolytic activity assay
- Format: biochemical
- appliedConditions: Mpro FRET (1 μM DTT)
resultType: pIC50
One number for each entry, as −log10 of the molar value.

# count of solved cases: 2
Task: Fill in: pIC50 of Cc1cncc(CC(=O)N2CCC[C@H]2c2cccc(Cl)c2)c1 is ___
Output: 5.25

Task: Fill in: pIC50 of CCn1cncc1NC(=O)C1c2cc(Cl)cc(Cl)c2OCC1C (stereo not drawn) is ___
Output: 4.17

// next entry
Task: Fill in: pIC50 of Cc1cncc(CC(=O)N2CCc3cc(Cl)c(Cl)cc3C2)c1 is ___
Output: 5.64
